Molecular target: Musca nAChR; housefly (Musca domestica) nAChR
Construct: gene nAChRalpha1; pentameric channel
Test: [3H]NMI radioligand displacement
Type: binding
Details: after UV illumination; photostationary mixture (67% closed form); competition with [3H]NMI
readout.kind: IC50 (nM)
Give a bare numeral; the unit nM is implied.

Request: Find IC50 (Musca nAChR; housefly (Musca domestica) nAChR) for the entry CC12SC(CN3CCN(Cc4ccc(Cl)nc4)C3=N[N+](=O)[O-])=CC1=C1C(=C3C=C(CN4CCN(Cc5ccc(Cl)nc5)C4=N[N+](=O)[O-])SC32C)C(F)(F)C(F)(F)C1(F)F (stereo not shown)
Result: 33.2

###

Target: Musca nAChR; housefly (Musca domestica) nAChR
Construct: gene nAChRalpha1; pentameric channel
Test: [3H]NMI radioligand displacement
Format: binding
Settings: unirradiated open form; competition with [3H]NMI
readout.kind: pIC50
Keep it numeric: pIC50 is minus log10 of the concentration in mol/L.

Request: I am curious: what pIC50 value has been reported for Cc1sc(CN2CCN(Cc3ccc(Cl)nc3)C2=N[N+](=O)[O-])cc1C1=C(c2cc(CN3CCN(Cc4ccc(Cl)nc4)C3=N[N+](=O)[O-])sc2C)C(F)(F)C(F)(F)C1(F)F ?
Result: 6.05
